assay: Storage stability of FlucmRNA-loaded LNP at −80, 5, 25 and 40° C.; format: physicochemical; conditions: maximum storage period 1 week
assay_readout: period for which quality remained good, −80° C. (week)

Here are 3 compounds together with their reported answers.
>  <compound>
CCCCC(CCCC)C(=O)OCCCCCCC(O)(CCCCCCOC(=O)C(CCCC)CCCC)CCCCN(CCC)CCC

>  <recorded_number>
0

$$$$
>  <compound>
CCCCCCCC(CCCCCCC)C(=O)OCCCCCCC(O)(CCCCCCOC(=O)C(CCCCCCC)CCCCCCC)CCCCOC(=O)C1CCN(C)CC1 [CL15F 9-7]

>  <recorded_number>
1

$$$$
>  <compound>
CCCCCCCCCCCC(CCC)C(=O)OCCCCCCC(O)(CCCCCCOC(=O)C(CCC)CCCCCCCCCCC)CCCCOC(=O)C1CCN(C)CC1 (stereo not shown) [CL15F 13-3]

>  <recorded_number>
0

$$$$

1. CCCCCCC(CCCCC)C(=O)OCCCCCCC(O)(CCCCCCOC(=O)C(CCCCC)CCCCCC)CCCCN(CCC)CCC (stereo not shown)
2. CCCCCCCCCCCC(CCC)C(=O)OCCCCCCC(O)(CCCCCCOC(=O)C(CCC)CCCCCCCCCCC)CCCCN(CCC)CCC (stereo not shown)
Out of 1 and 2 , name the one with the higher period for which quality remained good, −80° C.. The response must carry the label of the picked entry.
1
(1: 1 week, 2: 0 week)

---

experiment: Storage stability of FlucmRNA-loaded LNP at −80, 5, 25 and 40° C.; type: physicochemical; conditions: maximum storage period 5 weeks
assay_readout: period for which quality remained good, 40° C. (weeks)

>  <compound>
CCCCCCCCCCC(CCCC)C(=O)OCCCCCCC(O)(CCCCCCOC(=O)C(CCCC)CCCCCCCCCC)CCCCOC(=O)C1CCN(C)CC1 (centres unmarked) [CL15F 12-4]

>  <recorded_number>
5

$$$$

1. CCCCC/C=C\C/C=C\CCCCCCCCC(CCCCCCCC/C=C\C/C=C\CCCCC)OC(=O)CCCN(C)C [MC3, D-Lin-MC3-DMA, reference compound]
2. CCCCCCCCCCCC(CCC)C(=O)OCCCCCCC(O)(CCCCCCOC(=O)C(CCC)CCCCCCCCCCC)CCCCOC(=O)C1CCN(C)CC1 (centres unmarked) [CL15F 13-3]
Identify the entry with the smaller period for which quality remained good, 40° C. (weeks): 1 or 2 . The response must carry the label of the picked entry.
1

---

Assay: Storage stability of FlucmRNA-loaded LNP at −80, 5, 25 and 40° C.
Format: physicochemical
Conditions: maximum storage period 5 weeks
Protocol: Lipid nanoparticles were allowed to stand at each temperature of −80° C., 5° C., 25° C., and 40° C., and after keeping for each period of time, average particle size, PDI, and nucleic acid encapsulation rate were measured. […] The lipid nanoparticles which remain in good quality with standing at 5° C. for one week or more can be evaluated as having excellent stability.
assay_readout: period for which quality remained good, 40° C. (weeks)

>  <compound>
CCCCCCCCCC(CCCCC)C(=O)OCCCCCCC(O)(CCCCCCOC(=O)C(CCCCC)CCCCCCCCC)CCCCOC(=O)C1CCN(C)CC1 (stereo not shown) [CL15F 11-5]

>  <recorded_number>
5

$$$$
>  <compound>
CCCCCCCCCC(CCCCCCCCC)C(=O)OCCCCCCC(O)(CCCCCCOC(=O)C(CCCCCCCCC)CCCCCCCCC)CCCCN(CCC)CCC

>  <recorded_number>
5

$$$$
>  <compound>
CCCCCCCC(CCCCC)C(=O)OCCCCCCC(O)(CCCCCCOC(=O)C(CCCCC)CCCCCCC)CCCCN(CCC)CCC (stereo not shown)

>  <recorded_number>
5

$$$$
